biological target: HLA-A*33:01; assay: IEDB peptide-MHC binding, purified MHC/competitive/radioactivity; filed as Kd, often an IC50 or EC50 that approximates it; bounds were set here for any values at or beyond the usual limits of such assays; details: source organism: Vaccinia virus Copenhagen
Observable: pKd
The value called pKd is obtained by taking minus log10 of the concentration in mol/L.

Data request: Recorded pKd for `GLACYRFVK` , please?
Data returned: 5.74

###

target: HLA-B*57:01; test: IEDB peptide-MHC binding, purified MHC/competitive/fluorescence; filed as Kd, often an IC50 or EC50 that approximates it; bounds were set here for any values at or beyond the usual limits of such assays; conditions: source organism: Human immunodeficiency virus 1
Observable: Kd (nM)
# output: bare number, implied unit nM

Data request: Recorded Kd for `GTEEIRSLF` , please?
Data returned: 347
